biological target: human calcitonin receptor (CTR) (Homo sapiens); construct: expressed in transfected cells; host or cells: COS-7 (COS7-human CTR Clone #2); assay: Calcitonin receptor (CTR) cAMP Assay; type: cell-based; details: COS7-human CTR Clone #2 cells, cAMP dynamic 2 kit; read-out: Calcitonin Receptor cAMP Stimulation Activity: EC50
Sequence (P30988 25-474): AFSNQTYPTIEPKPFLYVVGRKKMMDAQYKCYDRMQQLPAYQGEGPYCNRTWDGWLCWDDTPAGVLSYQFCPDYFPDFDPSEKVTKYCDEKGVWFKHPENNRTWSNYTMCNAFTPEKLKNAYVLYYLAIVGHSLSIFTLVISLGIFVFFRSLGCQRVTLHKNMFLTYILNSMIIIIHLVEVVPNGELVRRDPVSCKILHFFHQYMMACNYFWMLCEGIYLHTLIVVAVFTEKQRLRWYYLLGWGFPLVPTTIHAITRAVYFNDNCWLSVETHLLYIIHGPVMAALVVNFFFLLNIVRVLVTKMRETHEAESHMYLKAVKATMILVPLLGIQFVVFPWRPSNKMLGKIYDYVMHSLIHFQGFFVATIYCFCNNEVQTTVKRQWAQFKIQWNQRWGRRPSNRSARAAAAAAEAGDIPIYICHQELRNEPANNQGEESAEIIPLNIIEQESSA
observed.property: EC50 (nM)

Before answering, review these 4 worked examples.
Cc1nnc(-c2c(CCC3CCOCC3)nc3c(c2-c2cnc4c(ccn4Cc4ccc(C#N)cn4)c2)C(=O)N2CCC[C@@H]32)o1; 216
Cc1nnc(-c2c(CCC34CCC(CC3)OC4)nc3c(c2-c2cc4ccnc(N[C@@H]5CCc6ncccc65)c4s2)S(=O)(=O)CC3C(C)C)o1 (stereo partly drawn); 5.02
Cc1nnc(-c2c(CCc3ccc(F)cc3)nc3c(c2-c2ccc4c(c2)oc(=O)n4Cc2ccc(C#N)cn2)c(=O)n2n3CCC2)o1; 1.23
Cc1cnc(-c2c(CCC3CCOCC3)nc3c(c2-c2ccc4c(c2)oc(=O)n4Cc2ccc(C#N)cn2)C(=O)N2CCC[C@@H]32)o1; 2.23

[P] Cc1nnc(-c2c(CCC3CCCO3)nc3c(c2-c2cc4ncnc(N[C@@H]5CCc6ncccc65)c4s2)S(=O)(=O)CC3C(C)C)o1 (stereo partly drawn)
[Q] Cc1cc(-c2c(CCC3CCOCC3)nc3c(c2-c2cc4ccnc(N[C@@H]5CCc6ncccc65)c4s2)S(=O)(=O)CC3C(C)C)ccn1 (stereo partly drawn)
Query: Between P and Q , which one shows the smaller EC50 number? Indicate which entry you chose by stating its label.
Response: Q
(Q: 45.2 nM, P: 184 nM)
